Test system: 429239-143-T-J1-PDC complex spheroid viability;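 note: luminescence signal used as surrogate measure of viable cells; spheroids exposed to compounds for seven days before readout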
Experiment: Anticancer human tumor 429239-143-T-J1-PDC patient-derived small cell lung carcinoma cell line growth inhibition [POLQ]
Details: curve of first compound; second compound 0.316 µM
pIC50: −log10 of the molar value.
pIC50 of 7 or higher: class 1. Under 7: class 0.

Recorded results for 2 compounds are shown here.
compound: O=C(Nc1ccc(O)c(NS(=O)(=O)c2ccc(F)cc2)c1)c1ccc(-c2ccccc2)cc1 + Nc1ccc(C#CCN(C(=O)Cc2ncc(C(F)(F)F)cc2C(F)(F)F)c2ccc(F)cc2)nn1
measuredTarget: 429239-143-T-J1-PDC complex spheroid viability;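 note: luminescence signal used as surrogate measure of viable cells; spheroids exposed to compounds for seven days before readout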
assignedLabel: class 0
//
compound: O=C(c1cc(Cc2n[nH]c(=O)c3ccccc23)ccc1F)N1CCN(C(=O)C2CC2)CC1 + COC1C(OC(N)=O)C(O)C(Oc2ccc3c(O)c(NC(=O)c4ccc(O)c(CC=C(C)C)c4)c(=O)oc3c2C)OC1(C)C
measuredTarget: 429239-143-T-J1-PDC complex spheroid viability;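 note: luminescence signal used as surrogate measure of viable cells; spheroids exposed to compounds for seven days before readout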
assignedLabel: class 0

Next compound, please.
[ask] Check this compound for pIC50 at or above 7: Cn1ncnc1[C@H]1c2n[nH]c(=O)c3cc(F)cc(c23)N[C@@H]1c1ccc(F)cc1 + Cc1cccc(N(C)C(=O)C2C(O)CCN2c2nc(C)cc(C(F)(F)F)c2C#N)c1
[reply] class 1
